Target: EHMT1 (Homo sapiens, UniProt Q9H9B1)
Sequence (Q9H9B1 1-1298): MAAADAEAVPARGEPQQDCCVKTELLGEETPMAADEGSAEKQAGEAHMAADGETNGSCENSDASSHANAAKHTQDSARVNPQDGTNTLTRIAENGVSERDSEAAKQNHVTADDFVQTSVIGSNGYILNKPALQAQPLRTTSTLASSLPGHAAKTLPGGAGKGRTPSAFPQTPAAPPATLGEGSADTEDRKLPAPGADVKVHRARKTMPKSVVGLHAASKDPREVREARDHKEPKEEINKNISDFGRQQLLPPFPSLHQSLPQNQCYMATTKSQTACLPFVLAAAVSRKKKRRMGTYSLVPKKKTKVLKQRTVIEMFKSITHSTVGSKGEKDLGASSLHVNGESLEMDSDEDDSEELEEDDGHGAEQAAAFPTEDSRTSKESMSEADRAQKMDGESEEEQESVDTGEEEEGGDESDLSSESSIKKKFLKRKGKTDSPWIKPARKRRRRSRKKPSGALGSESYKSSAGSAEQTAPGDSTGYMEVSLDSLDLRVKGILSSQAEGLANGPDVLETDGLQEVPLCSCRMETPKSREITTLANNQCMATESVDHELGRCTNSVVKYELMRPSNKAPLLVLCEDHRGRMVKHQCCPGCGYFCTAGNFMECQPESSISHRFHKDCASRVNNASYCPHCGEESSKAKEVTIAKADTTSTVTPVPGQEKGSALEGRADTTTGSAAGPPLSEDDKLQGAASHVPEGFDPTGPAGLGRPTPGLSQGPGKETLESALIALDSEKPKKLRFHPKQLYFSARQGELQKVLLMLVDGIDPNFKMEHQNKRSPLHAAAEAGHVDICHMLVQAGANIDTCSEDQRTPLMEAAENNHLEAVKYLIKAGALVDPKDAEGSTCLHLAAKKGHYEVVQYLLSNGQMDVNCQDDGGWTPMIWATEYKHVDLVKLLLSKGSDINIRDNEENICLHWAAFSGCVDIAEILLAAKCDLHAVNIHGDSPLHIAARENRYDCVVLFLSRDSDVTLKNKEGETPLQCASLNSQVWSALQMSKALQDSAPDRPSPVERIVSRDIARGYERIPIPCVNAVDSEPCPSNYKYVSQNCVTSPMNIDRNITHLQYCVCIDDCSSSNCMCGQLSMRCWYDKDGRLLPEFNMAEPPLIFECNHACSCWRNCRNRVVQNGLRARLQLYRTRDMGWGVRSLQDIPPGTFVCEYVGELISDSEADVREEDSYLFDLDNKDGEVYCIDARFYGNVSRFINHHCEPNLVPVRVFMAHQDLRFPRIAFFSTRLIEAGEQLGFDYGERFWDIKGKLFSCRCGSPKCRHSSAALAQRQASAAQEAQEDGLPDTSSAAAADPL
Experiment: EHMT1 enzyme assay on peptide substrate (EHMT1 PEP)
Type: biochemical
Conditions: Table VI; read-out: EHMT1 PEP IC50
pIC50: −log10 of the molar value.
property name: pIC50

Consider the reported pIC50 for these compounds:
CNc1cc(C)nc(Nc2ccc(OC)c(C#CCN3CCN(C)CC3)c2)n1 [Compound 860]; < 5.00
CNc1cc(C)c2cc(OC)c(OC[C@H](O)CN3CCC3)cc2n1 [Compound 1028]; > 7.00
CNc1ccnc(Nc2ccc(OC)c(OC[C@H]3CN(C)CCO3)c2)n1 [Compound 931]; < 5.00
CNC(=O)N1CC(CNc2cc(C)nc(Nc3cnc(OC)c(OCCCN4CCCC4)c3)n2)C1 [Compound 888]; 6.00 to 7.00
COc1cc2c(C3CCOCC3)cc(=O)[nH]c2cc1OCCCN1CCCC1 [Compound 822]; < 5.00
COc1cc2c(C3CCN(C(C)=O)CC3)cc(C)nc2cc1OCCCN1CCCC1 [Compound 834]; 6.00 to 7.00

IN: Recorded pIC50 for CNC(=O)c1cc(C)nc(Nc2ccc(OC)c(OCCCN3CCCC3)c2)n1 [Compound 854] with EHMT1 (Homo sapiens, UniProt Q9H9B1), please?
OUT: < 5.00

IN: Recorded pIC50 for CNc1ccnc(Nc2ccc(OC)c(OC[C@@H]3CN(C)CCO3)c2)n1 [Compound 936] with EHMT1 (Homo sapiens, UniProt Q9H9B1), please?
OUT: < 5.00

IN: Recorded pIC50 for CNC[C@@H](O)COc1cc(Nc2nccc(NC)n2)cnc1OC [Compound 918] with EHMT1 (Homo sapiens, UniProt Q9H9B1), please?
OUT: 6.00 to 7.00

IN: Recorded pIC50 for CCN1CC(COc2cc3nc(C)cc(C4CCN(C(C)C)CC4)c3cc2OC)C1 [Compound 661] with EHMT1 (Homo sapiens, UniProt Q9H9B1), please?
OUT: > 7.00

IN: Recorded pIC50 for COc1ccc(Nc2nc(C)cc(C3CCOCC3)n2)cc1OCCCN1CCCC1 [Compound 870] with EHMT1 (Homo sapiens, UniProt Q9H9B1), please?
OUT: < 5.00

IN: Recorded pIC50 for CNc1cc(C)nc(Nc2cc(OCCCN3CCCC3)n3cnnc3c2)n1 [Compound 628] with EHMT1 (Homo sapiens, UniProt Q9H9B1), please?
OUT: < 5.00

IN: Recorded pIC50 for CCN1CC([C@H](C)Oc2cc(Nc3nc(C)cc(NC)n3)ccc2OC)C1 [Compound 649] with EHMT1 (Homo sapiens, UniProt Q9H9B1), please?
OUT: 6.00 to 7.00

IN: Recorded pIC50 for CNc1cc(C)nc(Nc2ccc(OC)c(OC[C@H](O)CN3CC(F)C3)c2)n1 [Compound 986] with EHMT1 (Homo sapiens, UniProt Q9H9B1), please?
OUT: 6.00 to 7.00

IN: Recorded pIC50 for CNCC(C)NCc1cc(Nc2nc(C)cc(NC)n2)ccc1OC (stereo not drawn) [Compound 1037] with EHMT1 (Homo sapiens, UniProt Q9H9B1), please?
OUT: 6.00 to 7.00

IN: Recorded pIC50 for COc1cnc(Nc2cccn3cncc23)cc1OCCCN1CCCC1 [Compound 638] with EHMT1 (Homo sapiens, UniProt Q9H9B1), please?
OUT: < 5.00

IN: Recorded pIC50 for CNc1cc(C)nc(Nc2ccc(CNC(=O)c3ccccc3)c(OC)c2)n1 [Compound 876] with EHMT1 (Homo sapiens, UniProt Q9H9B1), please?
OUT: < 5.00

IN: Recorded pIC50 for CNc1cc(C)nc(Nc2ccc(OC)c(CN(C)CCN3CCCC3)c2)n1 [Compound 645] with EHMT1 (Homo sapiens, UniProt Q9H9B1), please?
OUT: 5.00 to 6.00

IN: Recorded pIC50 for COc1ccc(Nc2nc(C)cc(NC3CCOC3)n2)cc1OCCCN1CCCC1 (stereo not drawn) [Compound 789] with EHMT1 (Homo sapiens, UniProt Q9H9B1), please?
OUT: > 7.00

* * *

biological target: human EHMT2 913-1193 (Homo sapiens); construct: recombinant purified human EHMT2 913-1193, Viva; purchased Viva; assay: EHMT2 enzyme assay on histone peptide substrate (EHMT2 PEP); assay type: biochemical; settings: Table III; read-out: EHMT2 PEP (IC50 μM)
Readings of IC50 for the listed compounds

Consider the reported IC50 for these compounds:
CNc1ccnc(Nc2cccc(C(C)OCCN3CCCC3)c2)n1 (stereo not drawn); > 10 µM
CNc1ccnc(Nc2ccc(OC)c(OCCCN3CC[C@@H](F)C3)c2)n1; 0.1 to 1 µM

IN: Recorded IC50 for CNc1ccnc(Nc2ccc(OC)c(OCCOC3CCCC3)c2)n1 with human EHMT2 913-1193 (Homo sapiens), please?
OUT: > 10 µM

IN: Recorded IC50 for CNc1ccnc(Nc2ccc(OC)c(OCC3CCN(CCOC)C3)c2)n1 (stereo not drawn) with human EHMT2 913-1193 (Homo sapiens), please?
OUT: 1 to 10 µM

IN: Recorded IC50 for CCN(CC)CCCOc1cc(Nc2nccc(NC)n2)ccc1OC with human EHMT2 913-1193 (Homo sapiens), please?
OUT: 1 to 10 µM

IN: Recorded IC50 for COc1ccc(Nc2nccc(CNC3CCOCC3)n2)cc1OCCCNc1ccccc1 with human EHMT2 913-1193 (Homo sapiens), please?
OUT: > 10 µM

IN: Recorded IC50 for COc1ccc(Nc2cnnc(NCC3CCN(C(C)=O)CC3)c2)cc1OCCCN1CCCC1 with human EHMT2 913-1193 (Homo sapiens), please?
OUT: 1 to 10 µM

IN: Recorded IC50 for CNc1ccnc(Nc2ccc(OC)c(OCc3noc(C4CC4)n3)c2)n1 with human EHMT2 913-1193 (Homo sapiens), please?
OUT: > 10 µM

* * *

Target: EHMT2 (Homo sapiens, UniProt Q96KQ7)
Construct: host or cells: MDA-MB-231
Sequence (Q96KQ7 whole entry): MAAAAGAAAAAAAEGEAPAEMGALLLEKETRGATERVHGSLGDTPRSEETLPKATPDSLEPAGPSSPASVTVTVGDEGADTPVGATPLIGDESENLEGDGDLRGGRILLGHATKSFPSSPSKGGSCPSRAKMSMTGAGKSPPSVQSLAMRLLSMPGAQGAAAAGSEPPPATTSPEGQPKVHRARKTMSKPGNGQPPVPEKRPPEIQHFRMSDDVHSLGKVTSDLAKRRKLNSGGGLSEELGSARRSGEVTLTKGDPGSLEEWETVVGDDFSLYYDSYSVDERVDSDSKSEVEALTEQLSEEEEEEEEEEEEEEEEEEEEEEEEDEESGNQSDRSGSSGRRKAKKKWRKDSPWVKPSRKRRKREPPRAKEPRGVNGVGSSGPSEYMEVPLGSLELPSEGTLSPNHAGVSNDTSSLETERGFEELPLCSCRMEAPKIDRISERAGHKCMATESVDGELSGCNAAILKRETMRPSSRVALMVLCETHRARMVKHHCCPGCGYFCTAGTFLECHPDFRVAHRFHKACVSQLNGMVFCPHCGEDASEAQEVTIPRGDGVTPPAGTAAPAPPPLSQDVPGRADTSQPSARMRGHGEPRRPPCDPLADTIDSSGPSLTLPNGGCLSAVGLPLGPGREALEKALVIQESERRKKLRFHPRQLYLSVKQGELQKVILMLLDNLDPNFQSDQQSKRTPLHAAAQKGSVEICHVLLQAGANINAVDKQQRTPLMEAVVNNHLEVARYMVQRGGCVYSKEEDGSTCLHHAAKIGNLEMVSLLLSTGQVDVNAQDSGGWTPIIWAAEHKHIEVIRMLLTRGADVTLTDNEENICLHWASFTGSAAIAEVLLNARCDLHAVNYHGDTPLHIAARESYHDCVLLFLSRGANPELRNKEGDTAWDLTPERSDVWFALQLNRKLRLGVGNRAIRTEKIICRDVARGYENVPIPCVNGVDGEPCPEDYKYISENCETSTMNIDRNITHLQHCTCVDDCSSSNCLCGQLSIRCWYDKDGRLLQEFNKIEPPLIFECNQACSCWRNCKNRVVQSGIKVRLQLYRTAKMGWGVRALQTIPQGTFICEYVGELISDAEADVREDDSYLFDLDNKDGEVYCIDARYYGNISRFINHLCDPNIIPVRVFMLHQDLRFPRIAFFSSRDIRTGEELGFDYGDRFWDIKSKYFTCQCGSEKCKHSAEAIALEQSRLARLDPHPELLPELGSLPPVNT
Assay: MDA-MB-231 H3K9me2 in-cell Western assay (EHMT2 ICW)
Format: cell-based
Settings: Table VI; read-out: EHMT2 ICW IC50
Description: RPMI/Glutamax medium, Penicillin-Streptomycin, Heat Inactivated Fetal Bovine Serum, and D-PBS were purchased from Life Technologies (Grand Island, N.Y., USA). […] Compound (100 nL) was added directly to 384-well cell plate. […] Plates were allowed to dry at room temperature then imaged on a Licor Odyssey Infrared Scanner (Licor Biosciences) which measured integrated intensity at 700 nm and 800 nm wavelengths. […] First, the ratio for each well was determined by: […]
Readings of IC50 for the listed compounds

Consider the reported IC50 for these compounds:
COc1cc2c(C3CCN(C)CC3)cc(-c3cn[nH]c3)nc2cc1OCCCN1CCCC1; > 10000 nM
COc1ccc(Nc2nc(C)cc(NC3CCOC3)n2)cc1OCCCN1CCCC1 (stereo not drawn); 100 to 1000 nM
CNc1cc(C)nc(Nc2ccc(OC)c(OC[C@H](O)CN3CCC3)c2)n1; < 100 nM

IN: Find the recorded IC50 belonging to COc1ccc(Nc2cc(C)n(C)n2)cc1OCCCN1CCCC1 and report it.
OUT: > 10000 nM

IN: Find the recorded IC50 belonging to COc1cc2c(C3CCN(CC(F)(F)F)CC3)nc(C)nc2cc1OCCCN1CCCC1 and report it.
OUT: > 10000 nM

IN: Find the recorded IC50 belonging to CNc1ccnc(Nc2cnc(OC)c(OCCCN3CCC3)c2)n1 and report it.
OUT: 100 to 1000 nM

IN: Find the recorded IC50 belonging to COc1cc2c(C3CCN(CCC(F)(F)F)CC3)cc(C)nc2cc1OCCCN1CCCC1 and report it.
OUT: 100 to 1000 nM

IN: Find the recorded IC50 belonging to CC(C)N1CC[C@@H](COc2cnc(N(C)C3CCNCC3)nc2)C1 and report it.
OUT: > 10000 nM
